Each recorded value in this set is attributed to ChEMBL document CHEMBL1201862.

# System: ACHN
# method: NCI tumour cell line growth inhibition, 48 h
Calls of active or inactive are those of the source. No stated cut-off is given here; in the data, active = GI50 up to about 1.1 µM and inactive = higher.
Log the outcome using a class from t = active, f = inactive

q: State the result this test recorded for CCOP(=O)(OCC)C(Cc1ccc(Cl)cc1)NS(=O)(=O)c1ccc(C)cc1 (stereo unspecified) .
a: f

q: State the result this test recorded for N#C/C(=C\c1ccc(F)cc1)c1nc(-c2cc3ccccc3oc2=O)cs1 .
a: f

q: State the result this test recorded for CC1(C)[C@H]2CC[C@@]13C(=O)N1C(=O)O[C@@H]([C@H]1Cl)C(Cl)(COCc1ccccc1)C(=O)OCCO[C@H]3C2 (stereo partly specified) .
a: f

q: State the result this test recorded for N=C(N)N/N=C/c1nc2n(c1[N+](=O)[O-])CCS2 .
a: f

q: State the result this test recorded for Cc1cc(N(C)C)ccc1/N=N/c1ccc2ncccc2c1 .
a: f

q: State the result this test recorded for NC(CCCNc1cccc(O)c1)C(=O)O (stereo unspecified) .
a: f

q: State the result this test recorded for NNC(=O)c1ccc(-n2nnc(C(=O)NN)c2C(=O)NN)cc1 .
a: f

q: State the result this test recorded for CC1(C)COC(c2ccc(C(=O)c3ccc(Cl)cc3)cc2)=N1 .
a: f

q: State the result this test recorded for CCOC(=O)Oc1c(OC)cc(C(=O)NC2CCc3cc(OC)c(OC)c(OC)c3-c3ccc(SC)c(=O)cc32)cc1OC (stereo unspecified) .
a: t

q: State the result this test recorded for CN(C)CCCN1c2ccccc2Sc2cnccc21 .
a: f

q: State the result this test recorded for C=C[C@@]1(O)CCCC2=C(C(=O)OCC)CC[C@]21C .
a: f

q: State the result this test recorded for O=C1C2=C(CC3C(C2)C3(Br)Br)C(=O)C2=C1CC1C(C2)C1(Br)Br (stereo unspecified) .
a: f

q: State the result this test recorded for CC1=NN(c2ccccc2)C(=O)C1/N=N/c1ccc(S(N)(=O)=O)cc1 (stereo unspecified) .
a: f

q: State the result this test recorded for COc1ccc(/C=C2\C(=O)N(NC(C)=O)c3ccccc32)cc1 .
a: f

q: State the result this test recorded for CCCCCCCCCCCCCC/C(C(=O)OC)=C(/O)C(=O)OCC .
a: f

q: State the result this test recorded for C=C(C=O)[C@@H]1C2OC(=O)C(=C)[C@@H]2CC(O)[C@@]1(C)CC (stereo partly specified) .
a: f

q: State the result this test recorded for O=C1C(=O)N(c2ccc(Cl)cc2Cl)C(=O)C(=O)C1c1nc2ccccc2o1 .
a: f

q: State the result this test recorded for c1ccc2c(c1)[C@@H]1O[C@@H]1[C@@]13O[C@@]21[C@H]1O[C@H]1c1ccccc13 .
a: f

q: State the result this test recorded for O=c1[nH]c2cc(F)c(F)cc2nc1Cc1ccccc1 .
a: f

q: State the result this test recorded for O=[N+]([O-])c1ccc2nc(=S)[nH]n2c1 .
a: f

q: State the result this test recorded for CC[C@]1(Cc2ccc(OC)c(OC)c2)C=[N+]([O-])O[C@H](OC2CCCC2(c2ccccc2)c2ccccc2)[C@@H]1OC(=O)c1ccccc1 (stereo partly specified) .
a: f
